Molecular target: TRIM24 (Homo sapiens)
Sequence (O15164 1-1050): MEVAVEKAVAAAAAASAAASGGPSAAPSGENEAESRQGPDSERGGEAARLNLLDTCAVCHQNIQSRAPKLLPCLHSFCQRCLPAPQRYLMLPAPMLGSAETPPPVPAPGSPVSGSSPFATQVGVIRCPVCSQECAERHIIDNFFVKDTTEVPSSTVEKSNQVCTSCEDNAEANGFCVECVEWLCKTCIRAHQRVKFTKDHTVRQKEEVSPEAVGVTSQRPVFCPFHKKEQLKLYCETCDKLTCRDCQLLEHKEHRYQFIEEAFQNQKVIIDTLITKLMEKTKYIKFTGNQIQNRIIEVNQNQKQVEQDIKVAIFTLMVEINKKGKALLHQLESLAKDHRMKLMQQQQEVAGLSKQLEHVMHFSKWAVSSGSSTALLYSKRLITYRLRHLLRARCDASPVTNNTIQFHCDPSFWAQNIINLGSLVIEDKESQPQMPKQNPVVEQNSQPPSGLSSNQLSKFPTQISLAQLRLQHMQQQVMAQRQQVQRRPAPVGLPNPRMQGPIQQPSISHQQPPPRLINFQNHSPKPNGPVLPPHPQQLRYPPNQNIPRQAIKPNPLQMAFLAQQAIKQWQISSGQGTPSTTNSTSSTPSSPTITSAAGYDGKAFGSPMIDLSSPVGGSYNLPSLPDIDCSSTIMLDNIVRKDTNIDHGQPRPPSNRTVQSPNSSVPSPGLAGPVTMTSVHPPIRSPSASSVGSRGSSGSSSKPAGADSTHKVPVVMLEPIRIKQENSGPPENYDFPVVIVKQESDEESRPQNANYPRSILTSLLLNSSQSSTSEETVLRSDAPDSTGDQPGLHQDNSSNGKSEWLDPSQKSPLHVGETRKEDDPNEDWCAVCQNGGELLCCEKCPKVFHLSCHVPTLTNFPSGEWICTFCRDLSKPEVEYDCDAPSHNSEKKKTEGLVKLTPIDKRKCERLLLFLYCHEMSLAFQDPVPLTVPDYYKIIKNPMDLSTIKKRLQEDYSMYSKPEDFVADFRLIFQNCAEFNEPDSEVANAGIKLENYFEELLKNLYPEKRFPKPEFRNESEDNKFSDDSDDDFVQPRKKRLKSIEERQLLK
Assay: AlphaScreen binding assay for TRIM24 (counter-screening assay)
Details: compounds shown in FIG. 13A (Table 7); read-out: TRIM 24 IC50
pIC50: −log10 of the molar value.
Documented pIC50 across a set of compounds

[
  {
    "compound": "COc1ccc(Nc2c(-c3nc[nH]c3C)nc3ccccn23)cc1 [pck-9295-014]",
    "pIC50": 6.45
  },
  {
    "compound": "Cc1[nH]cnc1-c1nc2ccccn2c1NCCN1CCOCC1 [pck-9295-013]",
    "pIC50": 6.13
  },
  {
    "compound": "COc1ccc(Nc2c(-c3c[nH]c(C)n3)nc3ccc(Br)cn23)cc1 [pck-9295-016]",
    "pIC50": 6.09
  },
  {
    "compound": "CCOC(=O)CNc1c(-c2ccco2)nc2ccc(C(=O)OC)cn12 [pck-9295-035]",
    "pIC50": 5.28
  },
  {
    "compound": "CC(C)(C)Nc1c(-c2c(O)ccc3ccccc23)nc2ccccn12 [pck-9295-029]",
    "pIC50": 5.11
  }
]

Each recorded value in this set is attributed to patent US11731967B2.
